- Test system: huPPARγ
- MEASUREMENT DESCRIPTION: Cotransfection assay in CV-1 cells, luciferase reporter
- Type: cell-based, human
- MEASUREMENT CONTEXT: GAL4 chimeric system, relative to agonist reference molecule
Recorded measurements of huPPARγ CTF Efficacy, one per entry
Give your result in % as a bare value.

Previously resolved entries follow.
INSERT INTO measurements (molecule, experimental_value) VALUES
  ('COc1cc(CC(C)(Oc2ccccc2)C(=O)O)ccc1OCCc1nc(-c2ccc(-c3ccccc3)cc2)oc1C (stereo not shown) [Example 7]', 93),
  ('Cc1ccc(OC(C)(Cc2ccc(OCCc3nc(-c4ccc(-c5ccccc5)cc4)oc3C)cc2)C(=O)O)cc1C (stereo not shown) [Example 34]', 95);

Lab book: huPPARγ CTF Efficacy of Cc1oc(-c2ccc(-c3cccs3)cc2)nc1CCOc1ccc(CC(C)(Oc2cccc(F)c2)C(=O)O)cc1 (stereo not shown) [Example 22] noted as 100

Value of measured huPPARγ CTF Efficacy for the entry COc1cc(CC(C)(Oc2ccccc2)C(=O)O)ccc1OCCc1nc(-c2cccc(-c3ccccc3)c2)oc1C (stereo not shown) [Example 8] : 91

huPPARγ CTF Efficacy recorded for this molecule, Cc1oc(-c2cccc(-c3ccccc3)c2)nc1CCOc1ccc(CC(C)(Oc2ccc(F)cc2)C(=O)O)cc1 (stereo not shown) [Example 51] , is 160

So, Cc1oc(-c2cccc(-c3ccc(F)cc3)c2)nc1CCOc1ccc(CC(C)(Oc2ccccc2)C(=O)O)cc1 (stereo not shown) [Example 4] ? Its huPPARγ CTF Efficacy was 93

# molecule Cc1oc(-c2ccc(-c3ccccc3)cc2)nc1CCOc1ccc(CC(C)(Oc2ccc(C(C)(C)C)cc2)C(=O)O)cc1 (stereo not shown) [Example 15] ; its huPPARγ CTF Efficacy = 90
